# maps each entry to its MIC
Tested on: B. subtilis
TEST_PROTOCOL: Minimal growth inhibitory concentration (broth macrodilution), B. subtilis
Format: cell-based, Bacillus subtilis
TEST_CONDITIONS: Bacillus subtilis, read-out: MIC B. subtilis

{"columns": ["COMPOUND", "STUDY_TARGET", "MIC"],
 "data": [
  ["NC(=O)c1cccc(OCc2cccc(Cl)c2)c1", "B. subtilis", "50 µM"],
  ["CCC[C@@H](COc1ccc(F)c(C(N)=O)c1F)Nc1cccc(C(F)(F)F)c1 [(S)-26]", "B. subtilis", "50 µM"],
  ["NC(=O)c1cccc(OCCCc2cccc(Cl)c2)c1", "B. subtilis", "100 µM"],
  ["NC(=O)c1c(F)ccc(OCc2cccc(C(F)(F)F)c2)c1F", "B. subtilis", "25 µM"],
  ["CN(C)CCC(Oc1ccc(F)c(C(N)=O)c1F)c1cccc(C(F)(F)F)c1 (centres unmarked)", "B. subtilis", "> 100 µM"]
]}

---

# maps each entry to its solubility
TEST_PROTOCOL: Solubility in HEPES buffer with 2% DMSO, spectrophotometric
Format: physicochemical
TEST_CONDITIONS: HEPES buffer containing 2% DMSO, 25 °C, aqueous buffer, kinetic from dmso stock; HEPES buffer pH 6.8 containing 2% DMSO

{"columns": ["COMPOUND", "MEASURE_UNIT", "RESULT_QUALIFIER", "solubility"],
 "data": [
  ["NC(=O)c1c(F)ccc(OCc2ccc(C(F)(F)F)cc2)c1F", "µM", "=", 100],
  ["CCC[C@@H](COc1ccc(F)c(C(N)=O)c1F)Nc1cccc(C(F)(F)F)c1 [(S)-26]", "µM", "=", 100],
  ["CCC[C@H](COc1ccc(F)c(C(N)=O)c1F)Nc1cccc(C(F)(F)F)c1 [(R)-26]", "µM", "=", 100],
  ["NC(=O)c1c(F)ccc(OCc2ccccc2C(F)(F)F)c1F", "µM", "=", 50],
  ["NC(=O)c1cccc(NCc2cccc(Cl)c2)c1", "µM", "≥", 100],
  ["CN(C)CCC(Oc1ccc(F)c(C(N)=O)c1F)c1cccc(C(F)(F)F)c1 (centres unmarked)", "µM", ">", 1000],
  ["NC(=O)c1c(F)ccc(OCCCc2cccc(C(F)(F)F)c2)c1F", "µM", "=", 50],
  ["CCCC(COc1ccc(F)c(C(N)=O)c1F)Nc1cccc(C(F)(F)F)c1 (racemic)", "µM", "=", 50],
  ["NC(=O)c1ccc(NCc2cccc(Cl)c2)cc1", "µM", "≥", 100],
  ["NC(=O)c1c(F)ccc(OCc2nc3cc(Cl)cnc3s2)c1F [PC190723, reference compound]", "µM", "=", 10],
  ["NC(=O)c1cccc(OCCc2cccc(Cl)c2)c1", "µM", "≥", 100],
  ["NC(=O)c1c(F)ccc(OCc2cccc(C(F)(F)F)c2)c1F", "µM", "=", 50],
  ["NC(=O)c1cccc(OCc2cccc(Cl)c2)c1", "µM", "=", 100],
  ["NC(=O)c1c(F)ccc(OCCc2cccc(C(F)(F)F)c2)c1F", "µM", ">", 100],
  ["NC(=O)c1cccc(OCCCc2cccc(Cl)c2)c1", "µM", "=", 25],
  ["NC(=O)c1c(F)ccc(OCCNc2cccc(C(F)(F)F)c2)c1F", "µM", "=", 100],
  ["CCCN(Cc1cccc(Cl)c1)c1cccc(C(N)=O)c1", "µM", "=", 5],
  ["CN(Cc1cccc(Cl)c1)c1ccc(C(N)=O)cc1", "µM", "≥", 100],
  ["NC(=O)c1c(F)ccc(OCc2cccc(Cl)c2)c1F", "µM", "≥", 100],
  ["CN(Cc1cccc(Cl)c1)c1cccc(C(N)=O)c1", "µM", "≥", 100]
]}

---

STUDY_TARGET: BsFtsZ (Bacillus subtilis)
Construct: made in house
TEST_PROTOCOL: Fluorescence anisotropy of probes after consecutive additions of FtsZ, GMPCPP, MgCl2 and PC190723
Type: binding
TEST_CONDITIONS: probe 10 μM, FtsZ 10 μM, GMPCPP 0.1 mM, MgCl2 10 mM, 5–10 min
Procedure: (A) Fluorescence anisotropy values of the free probes (10 μM) in buffer, to which FtsZ (10 μM, unassembled) was added, followed by the slowly hydrolyzable GTP analogue GMPCPP (0.1 mM). BsFtsZ polymerization was then induced by the addition of MgCl2 (10 mM) and anisotropy values were recorded 5–10 min later. Nonfluorescent PC190723 (10 μM) was subsequently added to displace the fluorescent probe and anisotropy was measured 5 min later. […]
OUTCOME_MEASURE: Fluorescence anisotropy (r): + MgCl2 (polymer)

{"columns": ["MOLECULE", "ASSAY_RESULT"],
 "data": [
  ["CCCC(COc1ccc(F)c(C(N)=O)c1F)Nc1ccc([N+](=O)[O-])c2nonc12 (centres unmarked)", 0.203],
  ["CCCC(CNc1ccc([N+](=O)[O-])c2nonc12)Oc1ccc(F)c(C(N)=O)c1F (centres unmarked)", 0.157],
  ["CCC[C@H](CNc1ccc([N+](=O)[O-])c2nonc12)Oc1ccc(F)c(C(N)=O)c1F [(R)-2]", 0.081],
  ["CCC[C@@H](CNc1ccc([N+](=O)[O-])c2nonc12)Oc1ccc(F)c(C(N)=O)c1F [(S)-2]", 0.172],
  ["CCC[C@H](COc1ccc(F)c(C(N)=O)c1F)Nc1ccc([N+](=O)[O-])c2nonc12 [(R)-5]", 0.227],
  ["CCC[C@@H](COc1ccc(F)c(C(N)=O)c1F)Nc1ccc([N+](=O)[O-])c2nonc12 [(S)-5]", 0.096],
  ["CCCCCC(CNc1ccc([N+](=O)[O-])c2nonc12)Oc1ccc(F)c(C(N)=O)c1F (centres unmarked)", 0.261],
  ["NC(=O)c1c(F)ccc(OCCNc2ccc([N+](=O)[O-])c3nonc23)c1F [Compound 1, reference compound]", 0.080]
]}

---

STUDY_TARGET: BsFtsZ (Bacillus subtilis, UniProt P17865)
Construct: made in house
TEST_PROTOCOL: Fluorescence anisotropy of probes after consecutive additions of FtsZ, GMPCPP, MgCl2 and PC190723
Type: binding
TEST_CONDITIONS: probe 10 μM, FtsZ 10 μM
OUTCOME_MEASURE: Fluorescence anisotropy (r): + FtsZ (unassbld.)

{"columns": ["COMPOUND", "STUDY_TARGET", "ASSAY_RESULT"],
 "data": [
  ["CCC[C@H](COc1ccc(F)c(C(N)=O)c1F)Nc1ccc([N+](=O)[O-])c2nonc12 [(R)-5]", "BsFtsZ (Bacillus subtilis, UniProt P17865)", 0.041],
  ["CCCCCC(CNc1ccc([N+](=O)[O-])c2nonc12)Oc1ccc(F)c(C(N)=O)c1F (centres unmarked)", "BsFtsZ (Bacillus subtilis, UniProt P17865)", 0.104],
  ["NC(=O)c1c(F)ccc(OCCNc2ccc([N+](=O)[O-])c3nonc23)c1F [Compound 1, reference compound]", "BsFtsZ (Bacillus subtilis, UniProt P17865)", 0.027],
  ["CCCC(CNc1ccc([N+](=O)[O-])c2nonc12)Oc1ccc(F)c(C(N)=O)c1F (centres unmarked)", "BsFtsZ (Bacillus subtilis, UniProt P17865)", 0.039],
  ["CCC[C@H](CNc1ccc([N+](=O)[O-])c2nonc12)Oc1ccc(F)c(C(N)=O)c1F [(R)-2]", "BsFtsZ (Bacillus subtilis, UniProt P17865)", 0.046],
  ["CCCC(COc1ccc(F)c(C(N)=O)c1F)Nc1ccc([N+](=O)[O-])c2nonc12 (centres unmarked)", "BsFtsZ (Bacillus subtilis, UniProt P17865)", 0.034],
  ["CCC[C@@H](CNc1ccc([N+](=O)[O-])c2nonc12)Oc1ccc(F)c(C(N)=O)c1F [(S)-2]", "BsFtsZ (Bacillus subtilis, UniProt P17865)", 0.041],
  ["CCC[C@@H](COc1ccc(F)c(C(N)=O)c1F)Nc1ccc([N+](=O)[O-])c2nonc12 [(S)-5]", "BsFtsZ (Bacillus subtilis, UniProt P17865)", 0.042]
]}

---

STUDY_TARGET: stabilized polymers of FtsZ from B. subtilis (Bacillus subtilis)
Construct: made in house
Sequence (P17865 whole entry): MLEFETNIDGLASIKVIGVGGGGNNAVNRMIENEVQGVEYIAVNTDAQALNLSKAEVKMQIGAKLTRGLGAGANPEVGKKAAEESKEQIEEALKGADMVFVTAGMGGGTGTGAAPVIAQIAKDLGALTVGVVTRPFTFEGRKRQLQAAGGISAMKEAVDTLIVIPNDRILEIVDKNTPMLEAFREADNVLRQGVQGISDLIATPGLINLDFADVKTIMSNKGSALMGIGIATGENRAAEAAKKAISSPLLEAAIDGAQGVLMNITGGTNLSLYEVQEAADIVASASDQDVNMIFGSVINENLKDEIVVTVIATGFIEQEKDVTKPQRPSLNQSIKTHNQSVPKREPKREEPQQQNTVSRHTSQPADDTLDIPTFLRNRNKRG
TEST_PROTOCOL: Competition assay: displacement of probe (R)-5 from stabilized BsFtsZ-GMPCPP polymers
Assay type: binding
TEST_CONDITIONS: KD, stabilized polymers of FtsZ from B. subtilis; probe (R)-5; mean ± SEM

{"columns": ["COMPOUND", "Kd (µM)"],
 "data": [
  ["CN(C)CCC(Oc1ccc(F)c(C(N)=O)c1F)c1cccc(C(F)(F)F)c1 (stereo not shown)", 145]
]}

Measured values drawn from paper PMC8478281 for this set.
